method: yeast display, Sf9 membrane polyspecificity reagent, FACS + sequencing; frameworks hold sequencing errors

[
  {
    "seq_string": "QVQIVESGGGLVQAGGSLRLSCAASGFTFRVYAMGWYRPAPGKERELVAAISARGGSTYYADSVKVRFTISRDNAKNTVDLQMNSLKPEDTAVYYCAAEPSGKRSKFYYWGQGTQETVSS",
    "polyreactivity (PSR sort gate)": "high polyreactivity"
  },
  {
    "seq_string": "QVQLVESGGGLVQAGGSLRLSCAASGFIFIYNAMGWYRHAPGKERELVATINWSGGDSTYYADSVKGRFTISRDKAKNTVSLQMNSLKPEDTSVYYCATLSWYQQAYDYWGQGTQVTVSS",
    "polyreactivity (PSR sort gate)": "low polyreactivity"
  },
  {
    "seq_string": "QVQLVESGGGLVQAGGSLRLSCAASGRIFPSYDMGWYRQAPGKDRELVATISSRGDSTYYADSVKGRFTISRDNAKNTVYLQMNSLKPEDTAVYYCAAERPFWEYDYWGQGTQVTVSS",
    "polyreactivity (PSR sort gate)": "low polyreactivity"
  },
  {
    "seq_string": "QVQLVESGGGLVQAGGSLRLSCAASGRTLGAYAMGWYRQAPGKERELVAAIRWSGSSTYYADSVKGRFTISRDNAKNTVYLQMNSLKPEDTAVYYCAAYWSRVLYGMNYWGQGTQVTVSS",
    "polyreactivity (PSR sort gate)": "high polyreactivity"
  }
]

---

method: yeast display, Sf9 membrane polyspecificity reagent, FACS + sequencing; frameworks hold sequencing errors
result_type: polyreactivity (PSR sort gate)

[
  {
    "seq_string": "QDQLVESGGGLVQAGASLRLSCAASGSNGYYAMGWYRQAPGKERELVAVISRSGTGTYYADSVKGRFTISRDNAKNSVYLQMNSLKPEDTAVYYCNAETYTYRYEYDYWGQGTQVTVSS",
    "reported": "high polyreactivity"
  },
  {
    "seq_string": "QVQLVESGGGLVQAGGSLRLSCAASGRIFPANVMGWYRQAPGKERELVATIDNGGGTYYADSVKGRFTISRDNAKNTVYLQMNSLKPEDTAVYYCARDRHVRWGLKMDYWGQGTQVTVSS",
    "reported": "low polyreactivity"
  },
  {
    "seq_string": "QVQLVESGGGLVQAGGSLRLSCAASGSTFLNYAMGWYRQAPGKERELVAAISGRGGRTYYADSVKGRFTISRDNAKNTVYLLMNSLKPEDTAVYYCAARKWVSYTSYDYWGQGTQVTVSS",
    "reported": "high polyreactivity"
  },
  {
    "seq_string": "QVQLVESGGCLVQAGGSLRLSCAASGFTFTTYAMGWYRQAPGKEREFVAALTKRGGRTYYADSVKGRFTISRDNAKITVYLQMNSLKPEDTAVYYCNKVVHSFPFPYRYDMDYWGQGTQVTVSS",
    "reported": "high polyreactivity"
  },
  {
    "seq_string": "QVQLVESGGGLVQAGGRLRLSCAASGRIYRRNTMGWYRQAPGKERELVAAITSSGGSTYADSVKGRFTISRDNAKNTVYLQMNSLKPEDTAVYYCATYVAYHRGYRTYDHWGQGTQVTVSS",
    "reported": "low polyreactivity"
  }
]

---

method: yeast display, Sf9 membrane polyspecificity reagent, FACS + sequencing; frameworks hold sequencing errors
result_type: polyreactivity (PSR sort gate)

[
  {
    "seq_string": "QVQLVESGGGLVQAGGSLRLSCAASGSTFIGSDMGWYRQAPGKERELVAAISYSDGTYYADSVKGRFTISRDNAKNTVYLQMNSLKPEDTAVYYCATSYRDIGSHVGYWGQGTQVTVSS",
    "result_type": "polyreactivity (PSR sort gate)",
    "reported": "low polyreactivity"
  },
  {
    "seq_string": "QVQLVESGGGLVQAGGSLRLSCAASGSTFGDYAMGGYRQAPGKERELVAAISFSDGSTYYADSVKGRFTISRDNAKNTVYLQMNSLKPEDTAVYYCAKDAYWGYRWYTYDYWGQGTQVTVSS",
    "result_type": "polyreactivity (PSR sort gate)",
    "reported": "low polyreactivity"
  },
  {
    "seq_string": "QVQLVESGGGLVQAGGSLRLSCAASGSTFSSYAMGWYRQAPGKERELVAAINWSRTRTYYADSVKGRFTISRDNAKNTVYFQMNSVIPEDTAVYYCAAPGFGETADYDYWGHGTQVTVSS",
    "result_type": "polyreactivity (PSR sort gate)",
    "reported": "low polyreactivity"
  }
]

The origin of these recorded values is the nanobody polyreactivity screen of Harvey et al. (2022).
